Recorded values, source ChEMBL document CHEMBL3244156.

- Tested on: Mus musculus
- EXPERIMENT: Analgesic activity in mouse assessed as tail-flick latency period at 100 mg/kg, ip after 2 hrs by tail flick test
- Assay type: functional
- MEASUREMENT PARAMETERS: route intraperitoneal
ENDPOINT: Activity (%)
Answers are plain numbers, in %.

# annotated cases, reported Activity shown
Ask: Which Activity is reported for this molecule? COc1ccc(Cl)c2c1CCC(CN1CCCCCC1)C2=O.Cl (stereo unspecified)
Reply: 0

Ask: Need Activity, item COc1ccc(OC)c2c1CCC(CN(C)C)C2=O.Cl (stereo unspecified)
Reply: 0

Ask: Field request: Activity | item: COc1ccc(OC)c2c1CCC(CN1CCCCC1)C2=O.Cl (stereo unspecified)
Reply: 22

Please supply Activity for each of the following items, keeping them in order.
1. COc1ccc(Cl)c2c1C(C)CC(CN1CCOCC1)C2=O.Cl (stereo unspecified)
2. COc1ccc(OC)c2c1CCC(CN1CCCC1)C2=O.Cl (stereo unspecified)

Reply:
1. 40
2. 0

Ask: I am curious: what Activity value has been reported for COc1ccc(Cl)c2c1CCC(C(C)N1CCOCC1)C2=O.Cl (stereo unspecified) ?
Reply: 0
